Attribution: patent US9187484B2

Recorded pIC50 values for a group of compounds are listed next.
Target: LRRK2 (G2019S) (Homo sapiens, UniProt Q5S007, G2019S)
Construct: Recombinant GST-LRRK2 (delta970), purified from baculovirus infected insect cells (SF9); GST (N)
Sequence (Q5S007 970-2527 G2019S limits assumed): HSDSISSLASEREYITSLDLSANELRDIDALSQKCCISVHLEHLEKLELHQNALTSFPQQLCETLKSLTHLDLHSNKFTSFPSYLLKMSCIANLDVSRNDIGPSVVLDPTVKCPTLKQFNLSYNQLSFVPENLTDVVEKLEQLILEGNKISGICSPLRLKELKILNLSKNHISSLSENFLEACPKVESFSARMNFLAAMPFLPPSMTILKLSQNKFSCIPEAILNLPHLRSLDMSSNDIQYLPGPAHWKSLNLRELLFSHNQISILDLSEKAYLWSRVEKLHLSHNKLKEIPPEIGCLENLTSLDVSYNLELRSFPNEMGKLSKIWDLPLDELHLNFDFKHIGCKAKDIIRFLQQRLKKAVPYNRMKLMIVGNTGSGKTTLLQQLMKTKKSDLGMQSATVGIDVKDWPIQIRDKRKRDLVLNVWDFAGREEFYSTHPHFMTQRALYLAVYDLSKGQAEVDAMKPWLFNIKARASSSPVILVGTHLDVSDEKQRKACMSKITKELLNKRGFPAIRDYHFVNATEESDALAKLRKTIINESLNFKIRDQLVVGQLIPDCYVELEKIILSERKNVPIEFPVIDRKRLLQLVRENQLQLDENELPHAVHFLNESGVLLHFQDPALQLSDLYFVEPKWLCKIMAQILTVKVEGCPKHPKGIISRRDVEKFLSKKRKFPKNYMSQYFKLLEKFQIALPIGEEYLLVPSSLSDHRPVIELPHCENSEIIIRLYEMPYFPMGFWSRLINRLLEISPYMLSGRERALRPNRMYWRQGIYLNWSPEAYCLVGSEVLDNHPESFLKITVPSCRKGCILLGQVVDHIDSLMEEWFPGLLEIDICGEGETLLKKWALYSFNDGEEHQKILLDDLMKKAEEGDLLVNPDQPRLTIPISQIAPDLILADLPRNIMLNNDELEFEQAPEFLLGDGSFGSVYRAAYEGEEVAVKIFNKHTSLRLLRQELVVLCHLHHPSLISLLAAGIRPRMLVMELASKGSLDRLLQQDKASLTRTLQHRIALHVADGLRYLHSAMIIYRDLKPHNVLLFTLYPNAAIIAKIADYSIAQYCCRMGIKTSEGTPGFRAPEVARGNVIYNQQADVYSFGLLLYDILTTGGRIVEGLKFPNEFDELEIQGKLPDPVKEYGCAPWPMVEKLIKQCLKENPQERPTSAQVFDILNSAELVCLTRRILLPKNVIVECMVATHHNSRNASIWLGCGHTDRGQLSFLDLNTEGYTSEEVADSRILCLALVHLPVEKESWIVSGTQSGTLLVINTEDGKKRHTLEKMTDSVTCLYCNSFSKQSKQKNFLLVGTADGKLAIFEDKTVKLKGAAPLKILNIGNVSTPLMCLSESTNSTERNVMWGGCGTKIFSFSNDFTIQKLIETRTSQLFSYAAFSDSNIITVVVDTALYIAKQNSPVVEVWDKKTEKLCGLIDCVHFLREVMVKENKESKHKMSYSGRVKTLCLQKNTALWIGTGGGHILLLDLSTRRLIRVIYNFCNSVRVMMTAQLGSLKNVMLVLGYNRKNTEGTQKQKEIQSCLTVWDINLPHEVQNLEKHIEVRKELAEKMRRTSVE
Experiment: LRRK2 inhibition, radiometric kinase assay with recombinant GST-LRRK2 (delta970) and peptide substrate
Details: GST-LRRK2 (delta970) G2019S 30 nM, ATP ~52 μM (Km), 30 min at 30° C.
pIC50: −log10 of the molar value.
REPORTED_PROPERTY: pIC50

{"columns": ["COMPOUND", "REPORTED_PROPERTY", "REPORTED_MEASUREMENT"],
 "data": [
  ["CCC(Sc1ccc2nnc(-c3ccc(C)s3)n2n1)C(=O)N1CCCCC1 (centres unmarked) [Example 59]", "pIC50", "≤ 5.30"],
  ["O=C(CSc1ccc2nnc(-c3cccs3)n2n1)N1CCCC1 [Example 21]", "pIC50", "6.00 to 7.00"],
  ["CCC(Sc1ccc2nnc(-c3ccc(OC)cc3)n2n1)C(=O)N1CCCCC1 (centres unmarked) [Example 67]", "pIC50", "6.00 to 7.00"],
  ["O=C(CSc1ccc2nnc(-c3cccs3)n2n1)N1CCOCC1 [Example 24]", "pIC50", "6.00 to 7.00"],
  ["NC(=O)CSc1ccc2nnc(-c3ccccn3)n2n1 [Example 16]", "pIC50", "≤ 5.30"]
]}
